The reported numbers originate from patent US12187709B2.

As shown below, each of these compounds has a reported pIC50 value.
measured_target: Cbl-b (Homo sapiens (Human))
Sequence (Q13191 40-426): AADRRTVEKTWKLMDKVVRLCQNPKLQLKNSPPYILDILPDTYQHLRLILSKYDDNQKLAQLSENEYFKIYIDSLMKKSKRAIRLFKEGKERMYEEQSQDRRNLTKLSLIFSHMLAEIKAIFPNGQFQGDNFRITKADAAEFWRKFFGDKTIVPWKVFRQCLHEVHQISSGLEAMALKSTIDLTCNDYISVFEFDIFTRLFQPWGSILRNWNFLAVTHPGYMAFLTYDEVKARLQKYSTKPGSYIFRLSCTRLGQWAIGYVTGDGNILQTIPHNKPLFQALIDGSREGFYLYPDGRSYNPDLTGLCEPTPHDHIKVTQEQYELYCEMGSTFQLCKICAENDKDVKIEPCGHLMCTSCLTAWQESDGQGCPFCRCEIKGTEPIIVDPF
experiment: Cbl-b LCK Ub TR-FRET assay (Cbl-b Lck HTRF)
Type: biochemical
assay_context: Cbl-b LCK Ub TR-FRET
pIC50: −log10 of the molar value.
quantity_measured: pIC50

In [3]: df
Out[3]:
                                   compound  quantity_measured  reading
0  CCNc1cc([C@]2(c3nncn3C)C[C@@H](C)C2)cc(N2Cc3c(cc(CNC4(C)CCC4)cc3C(F)F)C2=O)n1              pIC50     8.12
1  CCOC1CC([C@H](c2cccc(N3Cc4c(cc(CNC5(C)CCC5)cc4C(F)(F)F)C3=O)c2)c2nncn2C)C1 (single isomer, unassigned) [Compound 265]              pIC50     6.51
2  Cn1cnnc1[C@@H](c1cccc(N2Cc3c(cc(CNC4(C)CCC4)cc3C(F)(F)F)C2=O)c1)C1CCC1              pIC50     6.77
